Cyclooxygenase (Bos taurus) (UniProt O62664+O62698) data, read-out ID50

In the examples that follow, each entry is paired with its recorded ID50.
Problem: Check Cyclooxygenase (Bos taurus) (UniProt O62664+O62698) data and give ID50 for CC(c1cc2ccccc2s1)N(O)C(N)=O (centres undefined) .
Result: > 750 µM

Problem: Check Cyclooxygenase (Bos taurus) (UniProt O62664+O62698) data and give ID50 for O=C1CCN(c2ccccc2)N1 .
Result: 6.9 µM

Problem: Check Cyclooxygenase (Bos taurus) (UniProt O62664+O62698) data and give ID50 for O=C(/C=C\N(O)Cc1ccccc1)c1ccc(Cl)cc1 .
Result: > 750 µM

---
Problem: Check Cyclooxygenase (Bos taurus) (UniProt O62664+O62698) data and give ID50 for O=C(/C=C\N(O)Cc1ccccc1)c1ccc(F)cc1 .
Result: > 750 µM
